test: yeast display, Sf9 membrane polyspecificity reagent, FACS + sequencing; frameworks hold sequencing errors

| primary-sequence | polyreactivity (PSR sort gate) |
| --- | --- |
| QVQLVESGGGLVQAGGSLRLSCAASGRTFSYYTMGWYRQAPGKERQLVARISNRGTNTYYADSVKGRFTISRDNAKNTVYLQMNSLKPEDTAVYYCAKYYYTSIVGYDSWGQGTQVTVSS | low polyreactivity |
| QVQLVESGGGLVQAGGSLRLSWAASGGTFVPYAMGWYRQAPGTERELVARISKRGGTTYYADSVKGRFTISRDNAKYTVYLQMNSLKPEDTAVYYCAAVLPARGYYWGQGTQVTVSS | high polyreactivity |
| QVQLVESGGGLFQAGGSLRLSCAATGSIFDYYAMGWYRQAPGKERELDGTITSGVSTYYADSVKGRFTISRDNAKNTVYLQMISLKPEDTAVYYCARDYAKSQDLYKYDYWGQGTQVTGSS | low polyreactivity |
| QVQLVESGGGLVQAGGSLRLSCAASGRIFLKYTLGWYRQAPGKERELVAAISRGGSTYYADSVKGRFTISRDNAKNTVYLQMNSLKPEDSAVYYCAATSYRRTGYNYWGQGTQVTVSS | high polyreactivity |
| QVQLVESGGGLVQSGGSLRLSCAASGSIFGYYAMGWYRRAPGKERELVAAISVSGGSTYYADSVKGRFTISRDNAKNTVYLLMNSLKPEDTAVYYCNKVQGSWRVPYYYWGQGTQVTVSS | high polyreactivity |
| QVQLVESGGGLVQAGGSLRLSCAASGRTFVTNAMGWYRQAPGKERELVATINWSGGRTHYADSVKGRFTISRDNAKNTVYLQMNSLKPEDTEVYYCAKASSRRYWTIRDGDYWGQGTQVTVSS | low polyreactivity |
| QVQLVESGGGLVQAGGSLRLSCAASGSTFRLYAMGWYRQAPGKERELDAAISGSGGSTYYADSVKGRFTISRDYEKNTVYLQMNSLKPVDTAVYYCAAEVVRRYYAGRGYWGHGTQVTVSS | high polyreactivity |
| QVQLVESGGGLVQAGGSLRLSCAASGSISFLYTMGWYRQAPGKERELVAAITGSTASTYYADSVKGRFTISRDNAKNTVYLQMNSLKPEDTAVYYCAAYWYAEGYWVSRDYWGQGTQVTVSS | low polyreactivity |
| QVQLVESGGGVVQAGGSLRLSCAASGRINARYAMGWYRQAPGKERELVAAITSGGGTYYADSVKGRFTISRDNAKNTVYLQMNSLKPEDTAVYYCAARWLSRGYEYYYWGQGTQVTVSS | high polyreactivity |
| QVQIVESGGGLVQAGGSLRLSCAASGRTFFPYAMGWYRQAPGKEREFVAAITKTDDSTYYADSVKGRFTISRDNAKNTVYLQMNSLKPEDTAVYYCAADRSISADYVVSVDYDYWGQGTQVTVSS | low polyreactivity |
| QVQLVESGGGLVQAGGSLRLSCAASGRISARYVMGWYRQAPGKERELVAAISWSGDRTYYADSVKGRFTISRDNAKNTVYLQMNSLKPEDTAVYYCANGFYSRLAYGYGYWGQGTQVTVSS | high polyreactivity |
| QVQLVESGGALVQAGGSLRLSCAASGRTLESNAMGWYRQTPGKERELVAAISTIGGTYYADSVKGRFTLSRDNAKNTVYLQMNSLKPEDTAVYYCAKVWYDHSYIPIYDSWGQGTQVTVSS | low polyreactivity |
| QVQLVESGGGLVQAGGSLRLSCAASGSIFYSNAKGWYRQAPGKERELVATITWSGGRTYYADSVKGRFTISRDNAKNTVYLQMNILKPEDTAVYYCAAVSIYWGQGTQVTVSS | low polyreactivity |
| QVQLVESGGGLVQAGGSLRLSCAASGSIFRGYAMGWYRQEPEKERELVAAMSRRGGSTYYADSVKGRFSISRDNAKNTVYLQMNSLKPEDTAVYYCAKDGTGAGNYDYWGQGTQVTVSS | low polyreactivity |
| QVQLVESGGGLVQAGGSLRLSCAASGSTFKLYVMGLYRPAPGKERELVAAIDWSGGSTYYADSVKGRFTISRDNAKNTVYLQMNSLTPEDTAVYYCAADSPNSWRMDYWGQGTQVTVSS | low polyreactivity |
| QVQLVESGGGLVQAGGSLRLSCAASGFPFSRYARGWSRQAPGTERELVATITARGGTTYYADSVKGRFTISRDNAKNTVYLQMNSLKPEDTAVYYCNAKAYYRPYYDYDYGGQGTQVTVSS | high polyreactivity |
| QVQLVESGGGLVQAGGRLRLSCAASGNTLRGYAMGWYRPAPGKERELVSAISYSSVNTYYADSVKGRFTISRDNAKNTVYLQMNSLKPEDTAVYYCAADYYYYRRTQYDLRGYPYYYWGQGTQVTVSS | low polyreactivity |
| QVQLVESGGGLVQAGGSLRLSCAASGRIFRSNVMGWYRQAPGKERELVAAITGRGSSTYYADSVKGRFTISRDNAKNTVYLQMNSLKPEDTAVYYCAKASRYWSLYYWGQGTQVTVSS | high polyreactivity |
| QVQLVESGGGLVQAGGSLRLSCAASGRIFADNAMGWYRQAPGKERELVADITYSGGSTYYADSVKGRFTISRDNAKNTVYLQMNSLNPEDTAVYYCAKQGVDYWGQGTQVTVSS | low polyreactivity |
| QVQLVESGGGLVQAGGSLRLSCAASGSILTRNAMGWYRQAPAKEREFVARITYSGGRTYYADSVKGRFTISRDNAKNTVYLQMNSLKPEDTAVYYCAKTDRYSLGYWGQGTQVTVSS | low polyreactivity |
| QVQLVESGGGLVQAGGSLRLSCAASGYTFYSNAMGWYRQAPGKERELVAVISRGGGTYYADSVKGRFTISRDNAKNTVYLQMNSLKPEDTAVYYCAASTFTYHWRYDYWGQGTEVTVSS | low polyreactivity |
